# key: entry, value: self-cleavage
B1: CPEB3 Ribozyme (parent)
chain: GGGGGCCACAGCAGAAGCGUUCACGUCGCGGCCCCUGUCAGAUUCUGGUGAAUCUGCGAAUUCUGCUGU

variants of: B1; assay: self-cleavage, relative activity (ratio to wild type); higher = more cleavage; co-transcriptional
Write no unit; give the number alone.

Recorded results for 3 variants are shown here.
changes="U49G A60C" quantity_kind=self-cleavage measured_value=0.338
changes="C34A U36C" quantity_kind=self-cleavage measured_value=0.568
changes="C9U G25A" quantity_kind=self-cleavage measured_value=0.306

Returns the measured self-cleavage for the input variant. Input: U36G G56C
0.284

Returns the measured self-cleavage for the input variant. Input: G30U U61G
0.215

Returns the measured self-cleavage for the input variant. Input: G30A G47U
0.939

Returns the measured self-cleavage for the input variant. Input: U21G C35U
0.361

Returns the measured self-cleavage for the input variant. Input: C39G G65C
0.297

Returns the measured self-cleavage for the input variant. Input: A60G U64A
0.493

Returns the measured self-cleavage for the input variant. Input: A10U G28A
0.139

Returns the measured self-cleavage for the input variant. Input: G31A G48C
0.9
